tested on: TCR2; experiment: Multiplexed TCR/library dropout screen, mean ES; assay type: cell-based, mouse; details: Avg ES for all the replicates that contain that TCR (TCR2)
RESULT_TYPE: ES for each dropout, LOO_TCR2
# output: bare number, no unit

Problem: Query: ES for each dropout, LOO_TCR2; subject: AEKVRNLPAGHGLNAQ
Result: -1.229e-5

Problem: // same read-out, input: AAVEEGIVAGGGVTLL
Result: 1.97e-6

Problem: // same read-out, input: ALVREGLRNVAAGANP
Result: -1.224e-5

Problem: // same read-out, input: AKAAVEEGIVAGGGV
Result: 1.371e-5

Problem: // same read-out, input: AGGVAVIKAGAATEV
Result: 7.935e-6

* * *

system: TCR2; test: I-Ag7 SABR-II HIP library screen, enrichment score; type: cell-based, mouse; conditions: TCR_Mean of 3 replicates minus PREDICTED_TCR (slope 0.896988, intercept 4.04602e-5)
Give measured Enrichment score for each item. Keep answers brief.

Problem: Query: Enrichment score; subject: GAGDLQTLALEVEEEGSANRRAED
Result: 0.0005985

Problem: // same read-out, input: VAQLELGGGPGASEASAKKKDESV
Result: 0.0007771

Problem: // same read-out, input: PGDLQTLALEVALLDEGHYPVRES
Result: 0.0008737

Problem: // same read-out, input: EVEDPQVEQLEGEDDPDRSMK
Result: 0.000574

Problem: // same read-out, input: EVEDPQVAQLNAARDPNRESLD
Result: 0.0005844

* * *

Give measured Enrichment score for each item. Keep answers brief.
system: BDC2.5 TCR; experiment: I-Ag7 SABR-II library screen, enrichment score; type: cell-based, mouse; conditions: I-Ag7 library; EXPT5 of 8
# output: bare number, no unit

Problem: Query: Enrichment score; subject: RVRPLWVRME [top putative hit of BDC2.5 TCR in I-Ag7 library]
Result: 0.001224

Problem: // same read-out, input: AVRPLWVRME [top putative hit of BDC2.5 TCR in I-Ag7 library]
Result: 0.001109

Problem: // same read-out, input: SRLGLWSRMDQLAKELTAE
Result: 0.003298

Problem: // same read-out, input: EKAHIPIWARMDAKK [top putative hit of BDC2.5 TCR in I-Ag7 library]
Result: 0.002482

Problem: // same read-out, input: EKAHVPIWARMDAKK
Result: 0.000744

Problem: // same read-out, input: RRAGDLQTLWSRMDARR
Result: 0.002428

Problem: // same read-out, input: SRLGLWVRMA [top putative hit of BDC2.5 TCR in I-Ag7 library]
Result: 0.000683

* * *

system: TCR30; experiment: I-Ag7 SABR-II library screen, enrichment score; assay type: cell-based, mouse; conditions: TCR_Mean minus PREDICTED_TCR (slope 0.934363, intercept 1.61073e-5 on LIB_Mean), TCR 30, run PZ98
Give measured Enrichment score for each item. Keep answers brief.
# output: bare number, no unit

Problem: Query: Enrichment score; subject: ALVREGLRNVAAGANP
Result: -1.611e-5

Problem: // same read-out, input: AEKVRNLPAGHGLNAQ
Result: 0.0001445

Problem: // same read-out, input: AAVEEGIVAGGGVTLL
Result: -2.605e-6

Problem: // same read-out, input: AKAAVEEGIVAGGGV
Result: 8.616e-5

Problem: // same read-out, input: AGGVAVIKAGAATEV
Result: -2.42e-5
